# System: TRPC4 (mouse), co-expressed with 5HT1a in HEK293
# protocol: enhancement of serotonin-evoked TRPC4 response – cell-based, second counter screen, HEK293 TRPC4/5HT1a, Fluo-4, counter-screen for TRPC4 potentiator project, confirmation (AID 434979)
# conditions: Fluo-4 calcium flux, at 10 µM, serotonin added at its EC20 dose; hits give high values
Active and inactive are the calls of the source.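 How the source made its calls: active means signal rise over 3 SD above mean of control wells given weak agonist, in both repeats and first screen; inactive means the rest.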
endpoint: potentiation

Below are worked cases with known answers.
>  <molecule>
CSc1nsc(NC(=O)Cc2ccccc2)n1

>  <potentiation>
inactive

$$$$
>  <molecule>
CC(NCCC(Cc1ccccc1)c1ccco1)c1ccccc1 (stereo unspecified)

>  <potentiation>
inactive

$$$$
>  <molecule>
COc1cc2c(cc1OC)C(C)N(C(=O)C(NC(=O)c1ccccc1)C(C)C)CC2 (stereo unspecified)

>  <potentiation>
inactive

$$$$
>  <molecule>
CC(COc1ccccc1)N1CCC(CO)(Cc2ccccc2)CC1 (stereo unspecified)

>  <potentiation>
inactive

$$$$
>  <molecule>
COc1cc(Br)cc(C2C3=C(CCCC3=O)N(c3ccc(F)cc3)C3=C2C(=O)CCC3)c1O

>  <potentiation>
31.7% (active)

$$$$

Shift focus to the following entry.
Prompt: potentiation lookup needed for COc1ccc(-c2nn(-c3ccccc3C)cc2CNCc2cccnc2)cc1F , thanks.
Completion: inactive

----------
# system: Short transient receptor potential channel 4 (Mus musculus) (UniProt Q9QUQ5)
# Sequence (Q9QUQ5 whole entry, looked up): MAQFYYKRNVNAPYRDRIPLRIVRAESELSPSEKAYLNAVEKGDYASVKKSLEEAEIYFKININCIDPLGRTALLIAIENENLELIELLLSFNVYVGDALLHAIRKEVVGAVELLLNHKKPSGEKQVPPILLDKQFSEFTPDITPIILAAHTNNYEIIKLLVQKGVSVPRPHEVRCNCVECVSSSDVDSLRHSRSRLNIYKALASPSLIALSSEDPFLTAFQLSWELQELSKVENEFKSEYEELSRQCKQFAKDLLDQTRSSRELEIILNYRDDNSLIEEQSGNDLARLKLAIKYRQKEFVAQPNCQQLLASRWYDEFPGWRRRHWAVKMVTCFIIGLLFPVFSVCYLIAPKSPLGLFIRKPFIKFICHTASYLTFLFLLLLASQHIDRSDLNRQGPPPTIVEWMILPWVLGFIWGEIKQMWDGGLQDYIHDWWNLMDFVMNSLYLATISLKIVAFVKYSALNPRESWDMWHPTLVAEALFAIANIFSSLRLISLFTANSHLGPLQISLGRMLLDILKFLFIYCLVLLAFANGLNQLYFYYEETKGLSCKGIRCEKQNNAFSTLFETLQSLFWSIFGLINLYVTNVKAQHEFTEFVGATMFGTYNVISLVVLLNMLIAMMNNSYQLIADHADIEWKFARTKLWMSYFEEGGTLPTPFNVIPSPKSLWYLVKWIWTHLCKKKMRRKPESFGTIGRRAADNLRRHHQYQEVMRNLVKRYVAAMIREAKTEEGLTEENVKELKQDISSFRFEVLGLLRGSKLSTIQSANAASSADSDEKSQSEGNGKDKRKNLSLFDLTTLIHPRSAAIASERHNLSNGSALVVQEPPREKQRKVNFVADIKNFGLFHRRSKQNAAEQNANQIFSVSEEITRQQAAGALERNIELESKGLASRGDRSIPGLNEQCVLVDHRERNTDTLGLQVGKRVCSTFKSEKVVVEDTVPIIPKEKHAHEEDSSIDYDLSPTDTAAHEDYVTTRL
# protocol: blockers of DAMGO-evoked TRPC4 calcium flux – cell-based, Fluo4, HEK293 TRPC4beta/mu-opioid, confirmation (AID 2636)
# conditions: at 10 µM
Active and inactive are the calls of the source.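 How the source made its calls: active means calcium signal cut by more than 3 SD below the full-agonist control yet still positive, in both repeats and the earlier primary screen; inactive means the rest.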
Form entry, call: pick from active, inactive

Prompt: // return assay outcome for OCCNCc1cc(Br)ccc1OCc1ccc(Cl)cc1Cl
Completion: active

Prompt: Ok, now COc1ccc(S(=O)(=O)n2nc(OC(=O)c3ccccc3Br)cc2N)cc1
Completion: inactive

Prompt: Ok, now CSCC[C@H](NC(=O)N1CCn2c1nc1ccccc12)C(=O)NCc1ccc(F)cc1
Completion: inactive

Prompt: Ok, now COc1ccc(-c2nn(-c3ccccc3C)cc2CNCc2cccnc2)cc1F
Completion: inactive

Prompt: Ok, now Cc1cc2oc(C(=O)N(Cc3ccccc3)C3CCS(=O)(=O)C3)cc(=O)c2cc1Cl (stereo not drawn)
Completion: inactive

Prompt: Ok, now CCN1CCN(c2ccc(S(=O)(=O)N3CCOCC3)cc2NC(=O)/C=C/c2ccc(OC)cc2OC)CC1
Completion: inactive

Prompt: Ok, now CC(C)n1c(SCC(=O)N2c3ccccc3Sc3ccccc32)nc2c1c(=O)n(C)c(=O)n2C
Completion: inactive

Prompt: Ok, now O=S(=O)(c1ccccc1Cl)N1CCC(Cc2ccccc2)CC1
Completion: inactive

Prompt: Ok, now CC12CC3(C)CC(C)(C1)CC(NC(=O)N1CCCC1)(C2)C3
Completion: active

Prompt: Ok, now COC(=O)[C@@]12CCCCN1[C@H](c1ccc(-c3cccc(Cl)c3)c(OC)c1)[C@H]1C(=O)N(C)C(=O)[C@H]12
Completion: inactive

Prompt: Ok, now CC(C)OC(=O)C1CC=CCC1C(=O)Nc1ccc(Cl)cc1 (stereo not drawn)
Completion: inactive

Prompt: Ok, now C=CCNC(=S)N/N=C/c1ccc(C(C)(C)C)cc1
Completion: active

Prompt: Ok, now CC(=O)c1ccc(S(=O)(=O)NCc2ccc(C(=O)NCC(c3ccccc3)N(C)C)cc2)cc1 (stereo not drawn)
Completion: inactive

Prompt: Ok, now CN(C)c1ccc([N+](=O)[O-])cc1C(=O)NCC(c1ccco1)N(C)C (stereo not drawn)
Completion: active

Prompt: Ok, now CCN(CC)CCSc1nnc2c3ccccc3n(Cc3ccccc3)c2n1
Completion: inactive

Prompt: Ok, now O=S(=O)(NCCSc1nnc(-c2ccco2)n1-c1ccccc1)c1ccccc1
Completion: inactive

Prompt: Ok, now CCOCCCNCc1cc(Br)ccc1OCc1ccccc1
Completion: active

Prompt: Ok, now CCOc1ccc2[nH]c3c(N4CCN(c5ccccn5)CC4)ncnc3c2c1
Completion: active

Prompt: Ok, now CC(C)Cc1nc(N2CCOCC2)c(C#N)c2c1CCC2
Completion: active

Prompt: Ok, now Cn1c(=O)c2c(nc(SCCN3CCCCC3)n2Cc2ccccc2)n(C)c1=O
Completion: inactive

Prompt: Ok, now CCOc1ccc(S(=O)(=O)Nc2cccc(C(=O)NCC(c3ccccc3)N(C)C)c2)cc1 (stereo not drawn)
Completion: inactive

Prompt: Ok, now CCCCn1c2ccccc2c2nnc(SCCN3CCCCC3)nc21
Completion: active

Prompt: Ok, now O=C(NCc1cccs1)C12CC3CC(CC(C3)C1)C2
Completion: inactive

Prompt: Ok, now CN1CCN(c2ccc(Cl)cc2NC(=O)CC2OC(=O)c3ccccc32)CC1 (stereo not drawn)
Completion: inactive

Prompt: Ok, now Cc1ccc(Cn2c(Cc3ccccc3)nc3ccccc32)cc1
Completion: inactive

Prompt: Ok, now Cc1ccc(C)c(N2CCN(CCCNC(=O)CCn3c(=O)c4cccn4c4cccnc43)CC2)c1
Completion: inactive

Prompt: Ok, now Cn1c(NCc2ccccc2O)nc2ccccc21
Completion: active

Prompt: Ok, now Cc1cccc(C(=O)Nc2sc(-c3ccccc3)cc2C(=O)O)c1
Completion: active

Prompt: Ok, now CCOC(=O)C1(CC2CC2)CCN(Cc2cn[nH]c2-c2cccc(F)c2)CC1
Completion: inactive

Prompt: Ok, now O=C(CSc1nnc(-c2ccc(Cl)cc2Cl)n1C1CCCCC1)NC1CCS(=O)(=O)C1 (stereo not drawn)
Completion: active

Prompt: Ok, now CCn1cc(CN2CCCC(CO)(Cc3cccc(Cl)c3)C2)cn1 (stereo not drawn)
Completion: active

Prompt: Ok, now Cc1cc(N2CCN(C)CC2)n2cc(-c3ccc(F)cc3)nc2n1
Completion: inactive

Prompt: Ok, now OCC1(CCCc2ccccc2)CCN(Cc2cc(F)ccc2F)CC1
Completion: active

Prompt: Ok, now Cc1ccc(-c2csc3ncnc(NCCN4CCOCC4)c23)cc1
Completion: active

Prompt: Ok, now Cc1ccc(CC(=O)NCC(c2ccco2)N(C)C)cc1C (stereo not drawn)
Completion: inactive

Prompt: Ok, now O=C(CN1CCN(Cc2ccccc2Cl)CC1)N=Nc1c(O)[nH]c2ccccc12
Completion: active

Prompt: Ok, now COc1cccc(C(=O)NC2CCCN(C3Cc4ccccc4C3)C2)c1OC (stereo not drawn)
Completion: inactive

Prompt: Ok, now Cc1ccc(CSc2nnc(-c3cccc(S(=O)(=O)N4CCOCC4)c3)n2C2CCCC2)cc1
Completion: inactive

Prompt: Ok, now CCCc1nc2ccccc2n1Cc1ccccc1OC
Completion: active

Prompt: Ok, now Cc1cc(-c2csc3ncnc(N4CCN(C)CC4)c23)cc(C)c1C
Completion: active

Prompt: Ok, now Cc1cc(C)c(S(=O)(=O)c2ccccc2C)c(OCC(C)(C)C)n1
Completion: active

Prompt: Ok, now CC1CC(C)CN(CCCNS(=O)(=O)c2cc(Br)cc3c2N(C(=O)C2CC2)CC3)C1 (stereo not drawn)
Completion: inactive

Prompt: Ok, now N#CCCn1cc(CNCc2ccccc2)c(-c2cccc([N+](=O)[O-])c2)n1
Completion: active
